Data provenance is ChEMBL document CHEMBL4513216.

assay: Toxicity liver stage against HepG2, at 10uM; assay type: cell-based; set-up: test concentration 10 uM, cell line HepG2-A16-CD81EGFP; settings: human, HepG2-A16-CD81EGFP cells; read-out: INHIBITION
Below, each entry is listed with its recorded cytotoxicity at 10 µM.
Express it in %; write the number only.

Please review the following examples before continuing.
[
  {
    "MOLECULE": "Clc1snnc1CN1CCN(c2nccs2)CC1",
    "UNIT_LABEL": "%",
    "cytotoxicity at 10 µM": -43.9
  },
  {
    "MOLECULE": "Cc1[nH]ccc1C(=O)NCC1CC(=O)N(CCc2ccccc2)C1 (centres undefined)",
    "UNIT_LABEL": "%",
    "cytotoxicity at 10 µM": -1.92
  },
  {
    "MOLECULE": "COCC1CC2(CCN(Cc3ccc(OC)cc3)CC2)CN1C(C)C (centres undefined)",
    "UNIT_LABEL": "%",
    "cytotoxicity at 10 µM": -3.68
  }
]

We now examine a further molecule.
Asked: State the recorded cytotoxicity at 10 µM for this entry: Cc1ccc(C(NC(=O)CCCN2CCCCC2)C(=O)O)cc1 (centres undefined)
Given back: 2.87
